These entries and their values trace back to paper PMC5540273.

# Tested on: MET
# SETUP_CONDITIONS: concentration: 1 μM, replicates: in singlicate; n = 1;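 note: KINOMEscan kinase panel screen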
What %Inh was measured for each of the following?
Your answer is read as %, so omit the unit and give the number.

**Query** Short answer please: %Inh, MET, entry CC(C)(C)c1ccc(-n2cnc3c(N)ncnc32)cc1
**Result** 0

**Query** Give recorded %Inh with MET for the following compound: CCC(CC)(CC)n1cnc2c(N)ncnc21
**Result** 0

**Query** Which %Inh is reported with MET for this entry: CC(=O)Nc1n[nH]c2ncc(-c3ccccc3)cc12 ?
**Result** 4

**Query** Request: %Inh, test system MET, entry Cl.Cn1ccc(-c2cccc(Nc3ccnc4cc(-c5nccs5)ccc34)c2)n1
**Result** 0

**Query** Item: COC(=O)c1cccc(NC(=O)NCCNc2ccnc(Nc3ccc(F)cc3)n2)c1 Test system: MET Read-out: %Inh Value: ?
**Result** 0

**Query** What %Inh appears in the records for this compound with MET? CCc1nc(-c2cccc(C)c2)c(-c2ccnc(NC(=O)c3ccccc3)c2)s1
**Result** 2

**Query** Lab note: need %Inh with MET for entry COc1cc2c(Nc3cccc(NC(=O)c4ccccc4)c3)ncnc2cc1OCCCN1CCOCC1 , please look it up.
**Result** 1

**Query** Form: Entry = Nc1nccc2scc(-c3ccc4c(c3)CCN4C(=O)Cc3cc(F)ccc3F)c12 | System = MET | %Inh = ____
**Result** 0

**Query** Requested read-out %Inh, target or system MET, entry Fc1cccc(COc2ccc(Nc3ncnc4sc(-c5ccc[nH]5)cc34)cc2Cl)c1
**Result** 0

**Query** # value lookup — system MET, readout %Inh, item CS(=O)(=O)CCNCc1nc(-c2ccc3ncnc(Nc4ccc(OCc5cccc(F)c5)c(Cl)c4)c3c2)cs1.Cl
**Result** 0

**Query** Provide value of %Inh for this record tested with MET: FC(F)(F)c1ccc(-c2nn3ncccc3c2-c2ccnc(Nc3cccc(C(F)(F)F)c3)n2)cc1
**Result** 21

**Query** I'm curious: which %Inh was measured for Cl.c1ccc(Cn2ccc3cc(Nc4ncnc5ccccc45)ccc32)cc1 tested on MET?
**Result** 2

**Query** Value wanted: %Inh (MET) of entry Fc1cccc(COc2ccc(Nc3ncnc4nn5ccccc5c34)cc2Cl)c1
**Result** 0

**Query** Notebook: pull reported %Inh for MET, entry Clc1cc(Nc2ncnc3cc[nH]c23)ccc1OCc1ccccn1
**Result** 4

**Query** Short answer please: %Inh, MET, entry Cc1ccc(NC(=O)c2cccc(C#N)c2)cc1-c1ccc(C(=O)Nc2ccncc2)cc1
**Result** 0

**Query** For MET, provide %Inh of NC(=O)c1sc(-n2cnc3ccccc32)cc1OCc1ccccc1F please.
**Result** 20

**Query** Recall the recorded %Inh for COc1ccc(-c2oc3ncnc(N)c3c2-c2ccc(OC)cc2)cc1 with MET and state it.
**Result** 0

**Query** Lab request: please report %Inh under test system MET for Cl.Fc1ccccc1COc1ccc(Nc2ncnc3ccc(-c4nnc(C(F)(F)F)o4)cc23)cc1Cl
**Result** 0

**Query** Please provide the recorded %Inh for Fc1ccc(-c2ncn(CCCNCc3ccccc3)c2-c2ccncc2)cc1 , tested on MET.
**Result** 0

###

# Tested on: VEGFR2
# Construct: gene KDR
# SETUP_CONDITIONS: concentration: 1 μM, replicates: in singlicate; n = 1
VALUE_KIND: %Inh (%)
Give a bare numeral; the unit % is implied.

**Query** Query (compound): Cc1ccc(O)cc1Nc1cc(C(F)(F)F)nc2ccc(-c3ccncc3)cc12 [GW630823] ; field requested: %Inh
**Result** 0

**Query** For the compound N#Cc1ccc(Oc2ccc(Nc3ncnc4cc[nH]c34)cc2Cl)cc1 , what %Inh is on record?
**Result** 12

**Query** Please give the measured %Inh for this compound: COc1cc2c(Nc3cccc(NC(=O)c4ccccc4)c3)ncnc2cc1OCCCN1CCOCC1 [GSK223810]
**Result** 28

**Query** So what does the record say about %Inh for Fc1cccc(COc2ccc(Nc3ncnc4cc[nH]c34)cc2Cl)c1 ?
**Result** 16

**Query** Entry Clc1ccc(-c2cc(-c3c[nH]nc3-c3ccccn3)ccn2)cc1 [GW681251] has what %Inh?
**Result** 0

###

# Tested on: WNK1
# SETUP_CONDITIONS: concentration: 1 μM, replicates: in singlicate; n = 1
I'd appreciate it if you could supply %Inh values for the items below.
Give the quantity in %, number only.

**Query** What reported %Inh corresponds to Nc1nc(-c2ccccn2)c(-c2ccnc3ccccc23)s1 on WNK1?
**Result** 15

**Query** Kindly state the measured %Inh obtained for Nc1nc(-c2ccc3c(N)n[nH]c3c2)cc(N2CCC[C@@H](C(=O)Nc3ccccc3)C2)n1.O=C(O)C(F)(F)F.O=C(O)C(F)(F)F with WNK1.
**Result** 11

**Query** API: value(readout= %Inh, system= WNK1, query= COC(=O)c1c(-c2ccccc2)c2cc(Cl)ccc2c(=O)n1Cc1ccc(S(C)(=O)=O)cc1 )
**Result** 0

**Query** Lab note: need %Inh with WNK1 for entry COc1ccc(NC(=O)Nc2ccc(C)c(-c3ccc(C(=O)Nc4ccncc4)cc3)c2)cc1 , please look it up.
**Result** 4

**Query** Field: %Inh (WNK1). Entry: CS(=O)(=O)CCNCc1ccc(-c2ccc3ncnc(Nc4ccc(OCc5ccccc5)c(Cl)c4)c3c2)o1.Cl
**Result** 11

###

# Tested on: DCAMKL2
# Construct: gene DCLK2
# SETUP_CONDITIONS: concentration: 1 μM, replicates: in singlicate; n = 1
VALUE_KIND: %Inh (%)
Numeric answer only, unit % assumed.

**Query** Returns the measured %Inh for the input molecule. Input: Nc1nccc2scc(-c3ccc4c(c3)CCN4C(=O)Cc3cc(F)ccc3F)c12
**Result** 8

**Query** Item under review: Cn1ccc2ncnc(Oc3ccc(NC(=O)Nc4cccnc4)c(Cl)c3)c21 . Reported %Inh?
**Result** 0

**Query** If you can, please state the reported %Inh value of CNc1nccc(-c2c(-c3ccc(F)cc3)ncn2CCCN2CCOCC2)n1 .
**Result** 0

**Query** Returns the measured %Inh for the input molecule. Input: Cl.c1ccc(Cn2ncc3cc(Nc4ncnc5ccccc45)ccc32)cc1
**Result** 0

**Query** %Inh for Cc1cc(N2CCC(NS(=O)(=O)c3ccc(F)cc3)CC2)nc(Nc2cccc(C#N)c2)n1.O=C(O)C(F)(F)F ?
**Result** 0

**Query** Query (molecule): Clc1cc(Nc2ncnc3cc[nH]c23)ccc1OCc1ccccn1 ; field requested: %Inh
**Result** 21

**Query** What value of %Inh has been reported for the following molecule? Cc1cccc(-c2nc(Nc3ccc4[nH]nnc4c3)c3ccccc3n2)n1
**Result** 0

**Query** I am curious: what %Inh value has been reported for CC(C)(C)OC(=O)NC1CCCN(c2cc(-c3ccc4c(N)n[nH]c4c3)nc(N)n2)C1 (centres unmarked) ?
**Result** 0

**Query** So what does the record say about %Inh for FC(F)(F)c1ccc(-c2nn3ncccc3c2-c2ccnc(Nc3cccc(C(F)(F)F)c3)n2)cc1 ?
**Result** 0

**Query** Can you look up the measured %Inh of O=C(Nc1ccccc1F)NC1CCN(c2ccnc(Nc3ccc(F)cc3)n2)C1 (centres unmarked) for me?
**Result** 0

**Query** Quick one: %Inh of Nc1nc(-c2ccc3c(N)n[nH]c3c2)cc(N2CCCCC2)n1 ?
**Result** 15

**Query** Which value of %Inh has been reported for CNc1nccc(-c2c(-c3ccc(F)cc3)ncn2C2CCN(C)CC2)n1 in the records?
**Result** 0

**Query** Please report the recorded %Inh for Cl.c1ccc(Cn2ccc3cc(Nc4ncnc5ccccc45)ccc32)cc1 .
**Result** 10

**Query** Which %Inh value belongs to CS(=O)(=O)CCNCc1nc(-c2ccc3ncnc(Nc4ccc(OCc5cccc(F)c5)c(Cl)c4)c3c2)cs1.Cl ?
**Result** 0

###

# System: CSNK1G3
# SETUP_CONDITIONS: concentration: 1 μM, replicates: in singlicate; n = 1
Label key: rule met means %Inh under 10%; rule not met means %Inh of 10% or more.

**Query** %Inh strictly < 10% for this molecule? COc1cc2c(Nc3cccc(NC(=O)c4ccccc4)c3)ncnc2cc1OCCCN1CCOCC1 [GSK223810]
**Result** rule not met

**Query** API: query returns whether the molecule falls strictly under 10% in %Inh. Query: Nc1n[nH]c2nnc(-c3ccccc3)cc12 [SB-517389]
**Result** rule not met

**Query** Please let me know if COc1ccc(Nc2nccc(N3CCC(NC(=O)Nc4ccc5c(c4)OCO5)C3)n2)cc1 (stereo not drawn) [GSK1379745] shows %Inh below 10%.
**Result** rule not met

**Query** Lab note: confirm whether the reported %Inh for this molecule is below 10%, equality not counting. molecule: COC(=O)c1c(-c2ccccc2)c2cc(Cl)ccc2c(=O)n1Cc1ccc(S(C)(=O)=O)cc1
**Result** rule met

**Query** I'd appreciate it if you could check whether CC(C)(C)OC(=O)NC1CCCN(c2cc(-c3ccc4c(N)n[nH]c4c3)nc(N)n2)C1 (stereo not drawn) [GSK2286096] has %Inh smaller than 10%.
**Result** rule not met

**Query** A record lists O=C(Nc1n[nH]c2nc(-c3ccco3)c(Br)cc12)c1ccc(CN2CCCC2)cc1.O=C(O)[C@H](O)[C@@H](O)C(=O)O [SB-742352] . Is its %Inh below 10%?
**Result** rule met

**Query** Hello, I'm reviewing records and need to know if %Inh of COc1ccc(-c2oc3ncnc(N)c3c2-c2ccc(OC)cc2)cc1 [SB-589132] is below 10%. Could you check?
**Result** rule not met

**Query** I wonder whether FC(F)(F)c1ccc(-c2cc(-c3c[nH]nc3-c3ccccn3)ccn2)cc1 [GW599550] has %Inh below 10%. Can you tell?
**Result** rule not met

**Query** In plain terms, does CC(C)N1CCC(n2cnc(-c3ccc(F)cc3)c2-c2ccnc(N)n2)CC1 [SB-223132] come in under 10% for %Inh?
**Result** rule met

**Query** In plain terms, does Nc1nc(-c2cccnc2)c(-c2ccnc3ccccc23)s1 [GW684083] come in under 10% for %Inh?
**Result** rule not met

**Query** Please indicate whether the reported %Inh of CCn1c(-c2ccncc2)nc2cnccc21 [SB-735216] is strictly below 10%.
**Result** rule met

**Query** Dear colleague, could you confirm whether %Inh of CCCc1ccc(S(=O)(=O)NC2CCN(c3ccnc(Nc4ccc(OC)cc4)n3)C2)cc1 (stereo not drawn) [GSK1379737] falls below 10%? Thanks.
**Result** rule not met

**Query** %Inh strictly < 10% for this molecule? CS(=O)(=O)CCNCc1ccc(-c2ccc3ncnc(Nc4ccc(OCc5ccccc5)c(Cl)c4)c3c2)o1.Cl [GW574783]
**Result** rule met

**Query** Criterion: %Inh strictly below 10%. Is it met by COc1ccc(NC(=O)Nc2ccc(C)c(-c3ccc(C(=O)Nc4ccncc4)cc3)c2)cc1 [GSK1398475] ?
**Result** rule not met

**Query** Just wondering, is %Inh of COc1ccc(Nc2nccc(N3CCC(NC(=O)c4cccc(NC(C)=O)c4)C3)n2)cc1 (stereo not drawn) [GSK1379732] below 10%?
**Result** rule not met

**Query** Identify whether the molecule Nc1nc(-c2ccc3c(N)n[nH]c3c2)cc(N2CCC[C@@H](C(=O)Nc3ccccc3)C2)n1.O=C(O)C(F)(F)F.O=C(O)C(F)(F)F [GSK2288359] records %Inh below 10%.
**Result** rule not met

**Query** Please let me know if O=C(Nc1ccccc1F)NC1CCN(c2ccnc(Nc3ccc(F)cc3)n2)C1 (stereo not drawn) [GSK1379722] shows %Inh below 10%.
**Result** rule met
